- Measurement Protocol: Antiproliferative activity against human PC3 cells after 72 hrs by WST-1 assay
- Format: functional
- Setup Conditions: PC-3, 72 h
Assay Metric: GI50 (µM)
Kindly answer with a numeric value in µM, unit omitted.

> print(dat)
                         structure.notation  assay.result
1  N=C(N)c1ccc(/N=N/Nc2cccc(C#Cc3ccccn3)c2)cc1          10.4
2       C#Cc1ccc(N/N=N/c2ccc(C(=N)N)cc2)cc1          22.5
3  N=C(N)c1ccc(/N=N/Nc2ccccc2C#Cc2ccccc2)cc1           5.3

// query GI50 value for entry COc1ccc(C#Cc2cccc(N/N=N/c3ccc(C(=N)N)cc3)c2)cc1 5

Look up GI50: N=C(N)c1ccc(/N=N/Nc2cccc(C#Cc3ccccc3)c2)cc1 5.8

What does the record list as GI50 for C#Cc1cccc(N/N=N/c2ccc(C(=N)N)cc2)c1 ? 18

---

- Measurement Protocol: Antiproliferative activity against human MCR5A cells after 72 hrs by WST-1 assay
- Format: cell-based
Assay Metric: GI50 at 72 h (µM)
// units = µM; emit number, no label

> print(dat)
                         structure.notation  assay.result
1  C[n+]1ccc(-c2c3nc(c(-c4cc[n+](C)cc4)c4ccc([nH]4)c(-c4cc[n+](C)cc4)c4nc(c(-c5cc[n+](C)cc5)c5ccc2[nH]5)C=C4)C=C3)cc1          15.2

Turning now to a further molecule:
# query: GI50 at 72 h of entry N=C(N)c1ccc(/N=N/Nc2cccc(C#Cc3ccc(F)cc3)c2)cc1 8.3

---

- Measurement Protocol: Binding affinity to 5'-FAM/3'-TAMRA labeled k-RAS21R 21-mer G-quadruplex DNA (unknown origin) assessed as change in melting temperature at 4 uM after 12 hrs by TR-FRET assay
# reported ΔTm; entries follow

Solved entries:
> print(dat)
                         structure.notation  assay.metric  assay.result
1       N#Cc1cccc(N/N=N/c2ccc(C(=N)N)cc2)c1           ΔTm        2.2 °C
2  C[n+]1ccc(-c2c3nc(c(-c4cc[n+](C)cc4)c4ccc([nH]4)c(-c4cc[n+](C)cc4)c4ccc([nH]4)c(-c4cc[n+](C)cc4)c4nc2C=C4)C=C3)cc1           ΔTm       46.7 °C
3  N=C(N)c1ccc(/N=N/Nc2cccc(C#Cc3ccccn3)c2)cc1           ΔTm       13.2 °C
4  N=C(N)c1ccc(/N=N/Nc2ccccc2C#Cc2ccccc2)cc1           ΔTm        1.8 °C
5            N=C(N)c1ccc(/N=N/Nc2ccccc2)cc1           ΔTm        6.4 °C
6       C#Cc1ccc(N/N=N/c2ccc(C(=N)N)cc2)cc1           ΔTm        4.2 °C
7  N=C(N)c1ccc(/N=N/Nc2cccc(C#Cc3ccc(F)cc3)c2)cc1           ΔTm        6.9 °C
8            N=C(N)c1ccc(/N=N/Nc2ccncc2)cc1           ΔTm        4.3 °C

Given C#Cc1ccccc1N/N=N/c1ccc(C(=N)N)cc1 , state its recorded ΔTm. 4.2 °C

Need ΔTm, item N#Cc1ccc(N/N=N/c2ccc(C(=N)N)cc2)cc1 8.2 °C

Any idea what its ΔTm is? The compound is N=C(N)c1ccc(/N=N/Nc2ccccc2C#Cc2ccc(F)cc2)cc1 2.7 °C

Quick one: ΔTm for N=C(N)c1ccc(/N=N/Nc2cccc(C#Cc3ccccc3)c2)cc1 ? 3.7 °C

Consider the compound N=C(N)c1ccc(/N=N/Nc2ccc(C(=N)N)cc2)cc1 and give its measured ΔTm. 24.1 °C

# input compound: N=C(N)c1ccc(/N=N/Nc2cccc(-c3ccccc3)c2)cc1 ; wanted: its ΔTm 15 °C

Would you kindly share the measured ΔTm for C#Cc1cccc(N/N=N/c2ccc(C(=N)N)cc2)c1 ? 7.1 °C

Recorded ΔTm for COc1ccc(C#Cc2cccc(N/N=N/c3ccc(C(=N)N)cc3)c2)cc1 , please? 2.6 °C
